Where do the numbers come from? From ChEMBL document CHEMBL1146069.

Test system: Y79
experiment_summary: Cellular uptake in human Y79 cells relative to unglycosylated TPP(p-DegOH)3
Type: ADME, cell-based
Assign class by Ratio: not lower than 2 means Met; lower than 2 means Not met.

item_smiles	class
OC[C@H]1O[C@H](OCCOCCOc2ccc(-c3c4nc(c(-c5ccccc5)c5ccc([nH]5)c(-c5ccc(OCCOCCO[C@H]6O[C@H](CO)[C@@H](O)[C@H](O)[C@@H]6O)cc5)c5ccc([nH]5)c(-c5ccc(OCCOCCO[C@H]6O[C@H](CO)[C@@H](O)[C@H](O)[C@@H]6O)cc5)c5nc3C=C5)C=C4)cc2)[C@@H](O)[C@@H](O)[C@@H]1O	Met
OC[C@H]1O[C@@H](OCCOCCOc2ccc(-c3c4nc(c(-c5ccccc5)c5ccc([nH]5)c(-c5ccc(OCCOCCO[C@@H]6O[C@H](CO)[C@H](O)[C@@H](O)[C@H]6O)cc5)c5ccc([nH]5)c(-c5ccc(OCCOCCO[C@@H]6O[C@H](CO)[C@H](O)[C@@H](O)[C@H]6O)cc5)c5nc3C=C5)C=C4)cc2)[C@H](O)[C@H](O)[C@H]1O	Met
OC[C@H]1O[C@H](OCCOc2ccc(-c3c4nc(c(-c5ccccc5)c5ccc([nH]5)c(-c5ccc(OCCO[C@H]6O[C@H](CO)[C@@H](O)[C@@H](O)[C@@H]6O)cc5)c5ccc([nH]5)c(-c5ccc(OCCO[C@H]6O[C@H](CO)[C@@H](O)[C@H](O)[C@@H]6O)cc5)c5nc3C=C5)C=C4)cc2)[C@@H](O)[C@@H](O)[C@@H]1O	Not met
OC[C@H]1O[C@H](SCCOCCOc2ccc(-c3c4nc(c(-c5ccccc5)c5ccc([nH]5)c(-c5ccc(OCCOCCS[C@H]6O[C@H](CO)[C@@H](O)[C@H](O)[C@@H]6O)cc5)c5ccc([nH]5)c(-c5ccc(OCCOCCS[C@H]6O[C@H](CO)[C@@H](O)[C@H](O)[C@@H]6O)cc5)c5nc3C=C5)C=C4)cc2)[C@@H](O)[C@@H](O)[C@@H]1O	Not met
OC[C@H]1O[C@@H](SCCOCCOc2ccc(-c3c4nc(c(-c5ccccc5)c5ccc([nH]5)c(-c5ccc(OCCOCCS[C@@H]6O[C@H](CO)[C@H](O)[C@@H](O)[C@H]6O)cc5)c5ccc([nH]5)c(-c5ccc(OCCOCCS[C@@H]6O[C@H](CO)[C@H](O)[C@@H](O)[C@H]6O)cc5)c5nc3C=C5)C=C4)cc2)[C@H](O)[C@H](O)[C@H]1O	Met
OCCOCCOc1ccc(-c2c3nc(c(-c4ccccc4)c4ccc([nH]4)c(-c4ccc(OCCOCCO)cc4)c4ccc([nH]4)c(-c4ccc(OCCOCCO)cc4)c4nc2C=C4)C=C3)cc1	Not met
